measured-endpoint: flash point
Could you write the number and then its unit?

Challenge: Recall and state the measured flash point for COC(=O)C(C)C [methyl isobutyrate] .
Response given: 3 °C

Challenge: Recall and state the measured flash point for CCCCI .
Response given: 33 °C

Challenge: Recall and state the measured flash point for CNC .
Response given: -18 °C

Challenge: Recall and state the measured flash point for NCCNCCN .
Response given: 97 °C

###

Quick list: flash point per entry.

Challenge: Recall and state the measured flash point for C=CC=O [prop-2-enal] .
Response given: -26.00 °C

###

Threshold-based label: flash point under 100 °C gives MET, flash point not under 100 °C gives NOT MET.

Challenge: Is 100 °C strictly greater than the molecule's reported flash point? molecule: CCSC(C)CC1CC(=O)C(/C(CC)=N/OC/C=C/Cl)=C(O)C1 (centres undefined)
Response given: MET

Challenge: Is 100 °C strictly greater than the molecule's reported flash point? molecule: C=CC(=O)OCCCCCCCC(C)C [8-methylnonyl prop-2-enoate]
Response given: NOT MET

Challenge: Is 100 °C strictly greater than the molecule's reported flash point? molecule: CC(C)CCl
Response given: MET

###

Quick list: flash point per entry.
Report as a plain number; the unit °C is understood.

- compound: "CCCC(C)CC(C)CC (configuration not stated)"
  flash point [°C]: 41

Challenge: Recall and state the measured flash point for CC/C=C\CCC [cis-3-heptene] .
Response given: -9

Challenge: Recall and state the measured flash point for CC(=O)CC(C)=O .
Response given: 38

Challenge: Recall and state the measured flash point for NC1CCC1 .
Response given: -4

Challenge: Recall and state the measured flash point for CCC#CCCCCCCCl .
Response given: 86

Challenge: Recall and state the measured flash point for CCCCCCC(=O)CC .
Response given: 63

Challenge: Recall and state the measured flash point for CC(Cl)Cl .
Response given: -10

###

Quick list: flash point per entry.
Report as a plain number; the unit °C is understood.

- compound: "CCCCCCCCCc1ccccc1"
  unit-spec: "°C"
  flash point: 117

Challenge: Recall and state the measured flash point for C[C@H]1CCC[C@H](C)C1 (relative stereo) [trans-1,3-dimethylcyclohexane] .
Response given: 8

Challenge: Recall and state the measured flash point for C#CCCC(C)C .
Response given: -4

Challenge: Recall and state the measured flash point for C#CC(C)(C)C .
Response given: -34

Challenge: Recall and state the measured flash point for C=CC=C(C)C .
Response given: -18

Challenge: Recall and state the measured flash point for CCCC(C)C(C)C (stereo not drawn) .
Response given: 5

###

# binarize flash point: threshold 8 °C inclusive, high side 1 (yes), low side 0 (no)

The examples below pair each entry with its known result.
- compound: "CCC(C)C(C)C (stereo unspecified)"
  class-label: "0 (no)"
- compound: "CN(C)CCCN"
  class-label: "1 (yes)"
- compound: "CC(C)NC(C)C"
  class-label: "0 (no)"
- compound: "CC(C)(C)CO"
  class-label: "1 (yes)"
- compound: "C1CCC2OC2C1 (stereo unspecified) [cyclohexene oxide]"
  class-label: "1 (yes)"

Challenge: Threshold query (flash point >= 8 °C) on CCCNCCC
Response given: 0 (no)

Challenge: Threshold query (flash point >= 8 °C) on CCCCNC
Response given: 0 (no)

Challenge: Threshold query (flash point >= 8 °C) on OCC(Cl)CCl (stereo unspecified)
Response given: 1 (yes)

Challenge: Threshold query (flash point >= 8 °C) on Cc1ccnc(C)c1
Response given: 1 (yes)

Challenge: Threshold query (flash point >= 8 °C) on COCCOCCOC
Response given: 1 (yes)

###

Quick list: flash point per entry.

Here's what some known entries look like.
- molecule: "CC(C)C[Si](Cl)(Cl)Cl [Isobutyltrichlorosilane]"
  flash point: "37.00 °C"
- molecule: "CCO[Si](OCC)(OCC)c1ccccc1 [Phenyltriethoxysilane]"
  flash point: "120.00 °C"
- molecule: "C[Si]1(C)CCCCO1 [1,1 -Dimethyl-1-sila-2-oxacyclohexane]"
  flash point: "14.00 °C"
- molecule: "C[Si](C)(Cl)CBr [Bromomethyldimethylchlorosilane]"
  flash point: "41.00 °C"

Next, consider the following molecule.
Challenge: Recall and state the measured flash point for Cl[Si](Cl)(Cl)c1ccccc1 [Phenyltrichlorosilane] .
Response given: 91.00 °C

###

Threshold-based label: flash point under 40 °C gives MET, flash point not under 40 °C gives NOT MET.

The examples below pair each entry with its known result.
- compound: "CC(C)CCO"
  class-label: "NOT MET"
- compound: "CCc1ccccc1N"
  class-label: "NOT MET"
- compound: "CCCCCCC(=O)O"
  class-label: "NOT MET"
- compound: "CCCC1CCCC1"
  class-label: "MET"
- compound: "C=CCCC"
  class-label: "MET"

Challenge: Is 40 °C strictly greater than the compound's reported flash point? compound: CC(O)CN (stereo not given)
Response given: NOT MET

Challenge: Is 40 °C strictly greater than the compound's reported flash point? compound: NCC1CCCCC1
Response given: NOT MET

Challenge: Is 40 °C strictly greater than the compound's reported flash point? compound: CCCCC(CC)CN (stereo not given)
Response given: NOT MET

Challenge: Is 40 °C strictly greater than the compound's reported flash point? compound: CCBr
Response given: MET

Challenge: Is 40 °C strictly greater than the compound's reported flash point? compound: CCCCCCOC(=O)CC [hexylpropanoate]
Response given: NOT MET

###

Quick list: flash point per entry.
Report as a plain number; the unit °C is understood.

Challenge: Recall and state the measured flash point for ClC[Si](Cl)(Cl)Cl [Trichloro(Chloromethyl) silane] .
Response given: 69.00

Challenge: Recall and state the measured flash point for CC(CCl)C[Si](C)(Cl)Cl (centres undefined) [3-Chloro-2-methylpropylmethyldichlorosilane] .
Response given: 90.00

Challenge: Recall and state the measured flash point for C[Si](C)(C)N[Si](C)(C)C [Hexamethyldisilazane] .
Response given: 8.00

Challenge: Recall and state the measured flash point for C=CC=CC[Si](C)(C)C [(2,4-Pentadienyl)trimethylsilane] .
Response given: 18.00

###

Threshold-based label: flash point under 60 °C gives YES, flash point not under 60 °C gives NO.

The examples below pair each entry with its known result.
- molecule: "CC(C)=O [acetone]"
  class-label: "YES"
- molecule: "CCCN [propylamine]"
  class-label: "YES"
- molecule: "CCC(CC)(CC)CC [3,3-diethylpentane]"
  class-label: "YES"
- molecule: "CCCCCCCCCCCl [1-chlorodecane]"
  class-label: "NO"
- molecule: "CCCCOCCO [2-butoxyethanol]"
  class-label: "NO"
- molecule: "OCC(Cl)CCl (stereo not given) [2,3-dichloro-1-propanol]"
  class-label: "NO"

Moving on to another molecule below.
Challenge: Is 60 °C strictly greater than the molecule's reported flash point? molecule: CC(C)CC#N [3-methylbutanenitrile]
Response given: YES

###

measured-endpoint: flash point
Could you write the number and then its unit?

Here's what some known entries look like.
- compound: "CCC(C)C(C)(C)CC (stereo not given) [3,3,4-Trimethylhexane]"
  flash point: "15 °C"
- compound: "CCC(C)(C(C)C)C(C)C [3-Ethyl-2,3,4-trimethylpentane]"
  flash point: "31 °C"
- compound: "CCCCCCCCCCCCCC [Tetradecane]"
  flash point: "99 °C"
- compound: "CC(C)CCC(C)(C)C [2,2,5-Trimethylhexane]"
  flash point: "13 °C"
- compound: "CCC(C)CC(C)C(C)C (stereo not given) [2,3,5-Trimethylheptane]"
  flash point: "31 °C"
- compound: "CC(C)(C)CCC(C)(C)C [2,2,5,5-Tetramethylhexane]"
  flash point: "31 °C"

Challenge: Recall and state the measured flash point for CCCC(C)C(C)C (stereo not given) [2,3-Dimethylhexane] .
Response given: 10 °C

Challenge: Recall and state the measured flash point for CCC(C)(C)CC [3,3-Dimethylpentane] .
Response given: -19 °C

Challenge: Recall and state the measured flash point for CCC(C)(C)C(C)C [2,3,3-Trimethylpentane] .
Response given: -0 °C

Challenge: Recall and state the measured flash point for CCC(C)C(C)(C)C(C)C (stereo not given) [2,3,3,4-Tetramethylhexane] .
Response given: 31 °C

###

measured-endpoint: flash point (°C)
Report as a plain number; the unit °C is understood.

- molecule: "O=P1(N(CCCl)CCCl)NCCCO1 (stereo not given)"
  unit-spec: "°C"
  flash point: 113.00

Challenge: Recall and state the measured flash point for Cc1cccc(C#N)c1 [3-methylbenzonitrile] .
Response given: 87.00

Challenge: Recall and state the measured flash point for CCC[CH2][Sn]([Cl])([Cl])[CH2]CCC [dibutyl(dichloro)stannane] .
Response given: 168.00

Challenge: Recall and state the measured flash point for CNC=O [N-methylformamide] .
Response given: 98.00

Challenge: Recall and state the measured flash point for Nc1ccc([N+](=O)[O-])cc1[N+](=O)[O-] [2,4-dinitroaniline] .
Response given: 224.00

Challenge: Recall and state the measured flash point for C/C=C/c1ccccc1 [[(E)-prop-1-enyl]benzene] .
Response given: 52.00
